Where these numbers come from: patent US9480259B2

# experimental_system: Arabidopsis thaliana SHMT
# measurement_protocol: SHMT activity assay (ED50 SHMT), coupled with N5,N10-CH2-THF dehydrogenase, NADH at 340 nm
# Type: biochemical
# measurement_conditions: Table 2; values given as upper bounds
property: EC50

Example compounds with recorded EC50:
>>> value_reported("Cc1n[nH]c2c1C(c1cc(Cl)cc(-c3cccc(F)c3)c1)(C1CC1)C(C#N)=C(N)O2 (stereo not shown)")
"< 100 nM"
>>> value_reported("CCC1(c2cccc(Oc3ccccc3)c2)C(C#N)=C(N)Oc2[nH]nc(C)c21 (stereo not shown)")
"< 100 nM"
>>> value_reported("Cc1n[nH]c2c1C(c1cc(O)cc(C#N)c1)(C1CCC1)C(C#N)=C(N)O2 (stereo not shown)")
"< 100 nM"
>>> value_reported("Cc1n[nH]c2c1C(c1cc(C#N)cc(-c3ccc(C(=O)O)c(C(=O)O)c3)c1)(C1CCC1)C(C#N)=C(N)O2 (stereo not shown)")
"< 10 nM"
>>> value_reported("COCOc1cc(C(F)(F)F)cc(C2(C3CCC3)C(C#N)=C(N)Oc3[nH]nc(C)c32)c1 (stereo not shown)")
"< 10 nM"

Could you share which EC50 value was measured for Cc1n[nH]c2c1C(c1ccc(OCc3ccccc3)c(Cl)c1)(C(C)C)C(C#N)=C(N)O2 (stereo not shown) ?
< 100 nM

Could you share which EC50 value was measured for Cc1n[nH]c2c1C(c1cccc(C(F)(F)F)c1)(C1CCC1)C(C#N)=C(N)O2 (stereo not shown) ?
< 10 nM
